System: BV-2
Assay: Anti-inflammatory activity against mouse BV-2 cells assessed as inhibition of LPS-induced TNFalpha production pretreated for 2 hrs followed stimulated with LPS for 22 hrs
Type: functional, cell-based
measurement_type: IC50 (µM)

{"compound": "COc1cc2c(c(OC)c1OC)C(=O)CC(c1cccc(C(=O)Nc3ccc(Br)cc3)c1)O2 (racemic)", "IC50, µM": 16.8}

A: COc1cc2c(c(OC)c1OC)C(=O)CC(c1cccc(C(=O)Nc3cccc(Br)c3)c1)O2 (racemic)
B: COc1cc2c(c(OC)c1OC)C(=O)CC(c1cccc(NC(=O)c3ccccc3Br)c1)O2 (racemic)
Identify the item whose IC50 is the smaller number: A or B Give the label of your selection. B
